- TARGET_DESC: c-Met kinase (h-Met; histidine-tagged c-Met catalytic domain fusion protein) (Homo sapiens (Human))
- Sequence (P08581 1078-1345): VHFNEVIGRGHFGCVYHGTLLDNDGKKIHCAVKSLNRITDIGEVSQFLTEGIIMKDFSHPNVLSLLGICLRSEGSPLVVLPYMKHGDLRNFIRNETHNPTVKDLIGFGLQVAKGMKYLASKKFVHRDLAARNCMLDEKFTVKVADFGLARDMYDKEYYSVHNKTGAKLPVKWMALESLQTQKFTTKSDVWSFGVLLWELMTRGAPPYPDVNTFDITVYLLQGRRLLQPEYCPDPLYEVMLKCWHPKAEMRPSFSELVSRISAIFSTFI
- ASSAY_EXPLANATION: In Vitro c-Met Kinase Enzyme Assays
- CONDITION_INFO: phosphorylation of poly Glu-Tyr, 5 μM ATP, 25 minutes at 30° C.

| COMPOUND | IC50 |
| --- | --- |
| COCC(C)NC(=O)c1ccc(-c2cnc3ncc(C4(c5ccc6ncccc6c5)CC4)n3c2)cc1F (centres unmarked) [Example 163] | < 500 nM |
| CNC(=O)c1ccc(-c2cnc3ncc(C4(c5ccc6ncccc6c5)CC4)n3c2)cc1F [Example 18] | < 500 nM |
| O=C(NCCOc1ccccn1)c1ccc(-c2cnc3ncc(C4(c5ccc6ncccc6c5)CC4)n3c2)cc1 [Example 40] | < 500 nM |
| O=C(NCCOc1ccccc1)c1ccc(-c2cnc3ncc(C4(c5ccc6ncccc6c5)CC4)n3c2)cc1 [Example 42] | < 500 nM |
| CN(CCN(C)c1ccccn1)C(=O)c1ccc(-c2cnc3ncc(C4(c5ccc6ncccc6c5)CC4)n3c2)cc1F [Example 173] | < 500 nM |
| COc1ccc(Sc2cnc3ncc(-c4ccc(F)cc4)nn23)cc1 [Example 20] | < 500 nM |
| CNC(=O)c1ccc(-c2cnc3ncc(C4(c5ccc6ncccc6c5)CC4)n3c2)c(F)c1F [Example 194] | < 500 nM |
| O=C(COc1ccc(-c2cnc3ncc(C4(c5ccc6ncccc6c5)CC4)n3c2)cc1)N1CCCC1 [Example 63] | < 500 nM |
